# Tested on: UACC-62 melanoma
# procedure-details: NCI-60 one-dose screen, 48 h
# particulars: 10 µM unless noted
# Experimental: Growth inhibition of the UACC-62 human tumor cell line is measured as a screen for anti-cancer activity. Cells are grown in 96 well plates and exposed to the test compound for 48 hours. Compounds are tested at a single concentration, which is 10^-5 M for most compounds. The reported endpoint is percent growth (GI% or GIPRCNT), where numbers from 0 - 100% represent growth inhibition, and numbers from -100% - 0 represent cell death. For example, a value of 40 represents 60% growth inhibition. […]
The panel holds about 83,000 compounds, 20% with a hit somewhere; the sample as a whole holds those more often. Calls of active or inactive are those of the source. The calls were made as follows: active = growth percent below 10; inactive = the rest.
# output must be one of active, inactive

Look up the recorded call for "O=S(=O)(Nc1cccc2cc(OS(=O)(=O)c3ccccc3)ccc12)c1ccccc1" in this test.
inactive

Write down the call the test reported for this compound. Item: COc1cccc(C2CC(c3cc(OC)c(OC)c(OC)c3)=NN2)c1 (stereo not given)
inactive

Can you look up the reported call for "Cc1c(Cl)ccc2c(C(=O)Cl)cc(-c3ccccc3)nc12" for me?
inactive

Lab log entry: "Nc1nc(Cl)cc(NCc2ccc(CNc3cc(Cl)nc(N)n3)cc2)n1" — outcome as called in the assay?
inactive

Hello, I am checking results. What call was entered for "C#CCn1c(-c2cc(OC)c(OC)cc2Br)nc(-c2ccccc2)c1-c1ccccc1" ?
inactive

What is the recorded call for this compound in the test? "Cc1cc2c(cc1C)N(C(=O)CCl)CCN2C(=O)CCl"
active

What outcome does the record of this test show for "OCc1cn(-c2ccc(Cl)cc2)nc1-c1ccc(O)cc1" ?
inactive

Status in this test for "O=c1c2ccccc2sc2c(N3CCCC3)nc3ccccc3c12" ?
inactive

Outcome logged for "Oc1ccccc1/C=N/c1ccccn1" in this assay:
inactive

Assay outcome for "Cc1ccccc1C[P+](c1ccccc1)(c1ccccc1)c1ccccc1" : what was it?
inactive

Given "O=C(Nc1ccc(-n2ccc3c(NC(=O)c4ccccc4)nccc32)cc1)c1ccc(Cl)c(C(F)(F)F)c1" , state the outcome it received in this test.
inactive

What classification did "O=C(O)c1ccc(-n2cc(/C=N/Nc3ccccc3F)c(-c3ccc(O)cc3)n2)cc1" end up with in this test?
inactive

Call for entry "Nc1nc(-c2cc3c(cc2Cl)NC(=O)/C3=C/c2ccccc2)cs1" :
inactive

Could you kindly confirm the outcome this assay logged for CCC1CN2C(=N1)c1ccccc1-c1cc(Cl)ccc12 (stereo not given) ?
active

What outcome does the record of this test show for "CN(C)c1ccc(/C=N/n2c(-c3cc(F)c(Cl)cc3Cl)nn(CN3CCOCC3)c2=S)cc1" ?
inactive

// return assay outcome for "COc1cc(C(=O)NNC(=O)c2ccccc2O)cc(OC)c1OC"
inactive

Could you please tell me the result logged for "COc1ccc(-c2nn(-c3ccc(NC(=O)c4cc(Cl)cc(Cl)c4)cc3)cc2-c2ccncc2)cc1Cl" in this assay?
inactive

# fetch the recorded call for "COc1cc(-c2nc(SCC(=O)Nc3ccc(C(C)=O)cc3)[nH]c(=O)c2C#N)cc(OC)c1OC" here
inactive

For "COc1ccc(NC(=O)COCCOCCNC[C@@H]2C(=O)O[C@H]3[C@H]2CC/C(COC(=O)OC/C2=C/CC[C@@]4(C)O[C@H]4[C@H]4OC(=O)[C@@H](CN(C)C)[C@@H]4CC2)=C\CC[C@@]2(C)O[C@@H]32)c(O)c1C(N)=O" , what call appears in the results of this test?
inactive

Call for entry "CCCCn1c(-c2cccc(OC)c2)nc2cc(OC)c(OC)cc2c1=O" :
inactive
